target: Receptor-type tyrosine-protein kinase FLT3 (Homo sapiens, UniProt P36888); test: Inhibition of FLT-3 (unknown origin) using poly(Glu,Tyr) as substrate after 30 mins by HTRF assay
Sequence (P36888 whole entry): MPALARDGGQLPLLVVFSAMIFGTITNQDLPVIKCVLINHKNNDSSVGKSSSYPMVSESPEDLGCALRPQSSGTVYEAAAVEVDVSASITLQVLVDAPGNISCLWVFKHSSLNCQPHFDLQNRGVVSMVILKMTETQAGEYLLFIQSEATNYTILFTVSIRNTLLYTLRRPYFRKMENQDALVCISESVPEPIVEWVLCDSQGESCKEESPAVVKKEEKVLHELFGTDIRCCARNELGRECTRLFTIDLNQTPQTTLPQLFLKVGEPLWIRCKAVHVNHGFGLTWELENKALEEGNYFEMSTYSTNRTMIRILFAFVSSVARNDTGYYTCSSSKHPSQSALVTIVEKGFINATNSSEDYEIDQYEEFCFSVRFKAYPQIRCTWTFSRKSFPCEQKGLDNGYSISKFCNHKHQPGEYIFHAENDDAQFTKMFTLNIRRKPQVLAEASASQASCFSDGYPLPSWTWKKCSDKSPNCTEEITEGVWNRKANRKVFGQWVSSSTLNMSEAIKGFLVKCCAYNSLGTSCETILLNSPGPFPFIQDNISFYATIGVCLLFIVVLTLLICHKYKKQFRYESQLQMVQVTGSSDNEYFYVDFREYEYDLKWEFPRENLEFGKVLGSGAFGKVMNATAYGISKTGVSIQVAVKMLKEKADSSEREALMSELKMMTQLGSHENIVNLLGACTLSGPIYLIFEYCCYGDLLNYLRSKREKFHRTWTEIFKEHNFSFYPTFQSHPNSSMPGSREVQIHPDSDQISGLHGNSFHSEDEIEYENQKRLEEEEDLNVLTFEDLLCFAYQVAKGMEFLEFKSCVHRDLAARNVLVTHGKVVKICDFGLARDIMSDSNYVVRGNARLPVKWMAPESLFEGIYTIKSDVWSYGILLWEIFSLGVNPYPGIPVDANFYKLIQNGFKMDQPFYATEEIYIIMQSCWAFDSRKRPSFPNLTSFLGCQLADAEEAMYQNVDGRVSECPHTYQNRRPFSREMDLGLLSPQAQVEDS
pIC50: −log10 of the molar value.
property_name: pIC50

>>> meas_value("COc1cc2c(Oc3ccc(NC(=O)N/N=C/c4ccc(F)cc4F)cc3F)ccnc2cc1OCCCN1CCC(C)CC1")
6.42

###

List of log10 IC50 values.
test system: HT-29; assay: cells; conditions: Homo sapiens, HT-29, 72 h
property_name: log10 IC50 (log10 of the value in nM)

>>> meas_value("COc1cc2c(Oc3ccc(NC(=O)N/N=C/c4ccc(F)cc4)cc3F)ccnc2cc1OCCCN1CCCCC1")
2.11
>>> meas_value("COc1cc2c(Oc3ccc(NC(=O)N/N=C/c4ccccc4)cc3F)ccnc2cc1OCCCN1CCC(C)CC1")
2.38
>>> meas_value("COc1cc2c(Oc3ccc(NC(=O)N/N=C/c4ccc(F)cc4F)cc3F)ccnc2cc1OCCCN1CCC(C)CC1")
1.90
>>> meas_value("COc1cc2c(Oc3ccc(NC(=O)N/N=C/c4ccccc4F)cc3F)ccnc2cc1OCCCN1CCC(C)CC1")
2.26
>>> meas_value("COc1cc2c(Oc3ccc(NC(=O)N/N=C/c4ccc(C(F)(F)F)cc4)cc3F)ccnc2cc1OCCCN1CCOCC1")
3.04
>>> meas_value("COc1cc2c(Oc3ccc(NC(=O)N/N=C/c4cccc([N+](=O)[O-])c4)cc3F)ccnc2cc1OCCCN1CCCCC1")
2.51
>>> meas_value("COc1cc2c(Oc3ccc(NC(=O)N/N=C/c4ccc(F)cc4F)cc3F)ccnc2cc1OCCCN1CCCCC1")
2.28
>>> meas_value("COc1cc2c(Oc3ccc(NC(=O)N/N=C/c4ccc(Cl)cc4)cc3F)ccnc2cc1OCCCN1CCCCC1")
1.99

###

tested on: HT-29; assay: cells; conditions: Homo sapiens, HT-29, 72 h
Listed here are compounds together with their documented IC50.
property_name: IC50 (µM)

>>> meas_value("COc1cc2c(Oc3ccc(NC(=O)N/N=C/c4ccccc4)cc3F)ccnc2cc1OCCCN1CCCCC1")
0.18
>>> meas_value("COc1cc2c(Oc3ccc(NC(=O)N/N=C/c4c(C)cc(C)cc4C)cc3F)ccnc2cc1OCCCN1CCCCC1")
0.7
>>> meas_value("C=CCc1cccc(/C=N/NC(=O)CN2CCN(Cc3ccccc3)CC2)c1O")
0.83
>>> meas_value("COc1cc2c(Oc3ccc(NC(=O)N/N=C/c4ccc(F)cc4)cc3F)ccnc2cc1OCCCN1CCCC1")
0.22
>>> meas_value("COc1cc2c(Oc3ccc(NC(=O)N/N=C/c4ccccc4C#N)cc3F)ccnc2cc1OCCCN1CCCCC1")
0.26
>>> meas_value("COc1cc2c(Oc3ccc(NC(=O)N/N=C/c4ccccc4)cc3F)ccnc2cc1OCCCN1CCCC1")
0.44

###

tested on: HT-29; assay: cells; settings: Homo sapiens, HT-29, 72 h
pIC50: −log10 of the molar value.
property_name: pIC50

>>> meas_value("COc1cc2c(Oc3ccc(NC(=S)N/N=C/c4ccc(F)cc4F)cc3F)ccnc2cc1OCCCN1CCCCC1")
6.48
>>> meas_value("COc1cc2c(Oc3ccc(NC(=S)N/N=C/c4ccccc4[N+](=O)[O-])cc3F)ccnc2cc1OCCCN1CCCCC1")
6.85
>>> meas_value("COc1cc2c(Oc3ccc(NC(=O)N/N=C/c4ccc(F)cc4)cc3F)ccnc2cc1OCCCN1CCC(C)CC1")
7.08
>>> meas_value("COc1cc2c(Oc3ccc(NC(=O)N/N=C/c4ccc(Cl)cc4)cc3F)ccnc2cc1OCCCN1CCCC1")
6.74
>>> meas_value("COc1cc2c(Oc3ccc(NC(=O)NNCc4ccc(F)cc4F)cc3F)ccnc2cc1OCCCN1CCC(C)CC1")
6.18
>>> meas_value("COc1cc2c(Oc3ccc(NC(=O)N/N=C/c4ccccc4[N+](=O)[O-])cc3F)ccnc2cc1OCCCN1CCCCC1")
6.82
>>> meas_value("COc1cc2c(Oc3ccc(NC(=S)N/N=C/c4ccco4)cc3F)ccnc2cc1OCCCN1CCCCC1")
6.40
>>> meas_value("COc1cccc(/C=N/NC(=O)Nc2ccc(Oc3ccnc4cc(OCCCN5CCCCC5)c(OC)cc34)c(F)c2)c1")
6.48

###

system: A549; assay: Cytotoxicity against human A549 cells after 72 hrs by MTT assay; format: functional, cell-based; details: A549, 72 h
pIC50: −log10 of the molar value.
property_name: pIC50

>>> meas_value("COc1cc2c(Oc3ccc(NC(=S)N/N=C/c4ccc(F)cc4F)cc3F)ccnc2cc1OCCCN1CCCCC1")
6.72
>>> meas_value("COc1cc2c(Oc3ccc(NC(=O)N/N=C/c4ccccc4[N+](=O)[O-])cc3F)ccnc2cc1OCCCN1CCCCC1")
6.72
>>> meas_value("COc1cccc(/C=N/NC(=O)Nc2ccc(Oc3ccnc4cc(OCCCN5CCCCC5)c(OC)cc34)c(F)c2)c1")
6.47
>>> meas_value("COc1cc2c(Oc3ccc(NC(=O)N/N=C/C(C)C)cc3F)ccnc2cc1OCCCN1CCCCC1")
5.72
>>> meas_value("COc1ccc(OC)c(/C=N/NC(=O)Nc2ccc(Oc3ccnc4cc(OCCCN5CCCCC5)c(OC)cc34)c(F)c2)c1")
6.07
>>> meas_value("COc1cc2c(Oc3ccc(NC(=O)N/N=C/c4ccco4)cc3F)ccnc2cc1OCCCN1CCCCC1")
6.36
>>> meas_value("CC/C(=N\\NC(=O)Nc1ccc(Oc2ccnc3cc(OCCCN4CCCCC4)c(OC)cc23)c(F)c1)c1ccccc1")
6.54
>>> meas_value("COc1cc2c(Oc3ccc(NC(=S)N/N=C/c4ccccc4[N+](=O)[O-])cc3F)ccnc2cc1OCCCN1CCCCC1")
6.60

###

system: HT-29; assay: cells; details: Homo sapiens, HT-29, 72 h
pIC50: −log10 of the molar value.
Entries and their pIC50 values follow.
property_name: pIC50

>>> meas_value("COc1cc2c(Oc3ccc(NC(=O)N/N=C(\\C)c4ccccc4)cc3F)ccnc2cc1OCCCN1CCCCC1")
6.70
>>> meas_value("COc1cc2c(Oc3ccc(NC(=O)N/N=C/c4ccco4)cc3F)ccnc2cc1OCCCN1CCCCC1")
6.44
>>> meas_value("COc1ccc(OC)c(/C=N/NC(=O)Nc2ccc(Oc3ccnc4cc(OCCCN5CCCCC5)c(OC)cc34)c(F)c2)c1")
6.23
>>> meas_value("COc1cc2c(Oc3ccc(NC(=O)N/N=C/c4ccc(Cl)cc4)cc3F)ccnc2cc1OCCCN1CCOCC1")
6.80
>>> meas_value("COc1cc2c(Oc3ccc(NC(=O)N/N=C/c4ccccc4)cc3F)ccnc2cc1OCCCN1CCOCC1")
6.70
>>> meas_value("CC/C(=N\\NC(=O)Nc1ccc(Oc2ccnc3cc(OCCCN4CCCCC4)c(OC)cc23)c(F)c1)c1ccccc1")
6.48
>>> meas_value("COc1cc2c(Oc3ccc(NC(=O)N/N=C/c4ccc(F)c(F)c4)cc3F)ccnc2cc1OCCCN1CCCCC1")
6.42
>>> meas_value("COc1cc2c(Oc3ccc(NC(=O)N/N=C/C(C)C)cc3F)ccnc2cc1OCCCN1CCCCC1")
5.96

###

test system: A549; assay: Cytotoxicity against human A549 cells after 72 hrs by MTT assay; type: functional, cell-based; conditions: A549, 72 h
pIC50: −log10 of the molar value.
property_name: pIC50

>>> meas_value("COc1cc2c(Oc3ccc(NC(=O)N/N=C/c4ccccc4F)cc3F)ccnc2cc1OCCCN1CCC(C)CC1")
6.66
>>> meas_value("COc1cc2c(Oc3ccc(NC(=O)N/N=C/c4ccccc4)cc3F)ccnc2cc1OCCCN1CCCC1")
6.38
>>> meas_value("COc1cc2c(Oc3ccc(NC(=O)N/N=C/c4ccc(F)cc4F)cc3F)ccnc2cc1OCCCN1CCC(C)CC1")
7.10
>>> meas_value("COc1cc2c(Oc3ccc(NC(=O)N/N=C/c4cccc([N+](=O)[O-])c4)cc3F)ccnc2cc1OCCCN1CCCCC1")
6.12

###

test system: A549; experiment: Cytotoxicity against human A549 cells after 72 hrs by MTT assay; type: functional, cell-based; details: A549, 72 h
Listed next: entries and their corresponding log10 IC50.
property_name: log10 IC50 (log10 of the value in nM)

>>> meas_value("COc1cc2c(Oc3ccc(NC(=O)N/N=C/c4ccc(F)cc4)cc3F)ccnc2cc1OCCCN1CCCCC1")
1.95
>>> meas_value("COc1cc2c(Oc3ccc(NC(=O)N/N=C/c4ccccc4)cc3F)ccnc2cc1OCCCN1CCOCC1")
2.54
>>> meas_value("COc1cc2c(Oc3ccc(NC(=O)N/N=C/c4ccc([N+](=O)[O-])cc4)cc3F)ccnc2cc1OCCCN1CCCCC1")
2.91
>>> meas_value("COc1cc2c(Oc3ccc(NC(=O)N/N=C/c4ccc[nH]4)cc3F)ccnc2cc1OCCCN1CCCCC1")
2.73
>>> meas_value("COc1cc2c(Oc3ccc(NC(=O)N/N=C/c4ccc(F)cc4)cc3F)ccnc2cc1OCCCN1CCOCC1")
2.30
>>> meas_value("COc1cc2c(Oc3ccc(NC(=O)N/N=C/c4ccccc4C(F)(F)F)cc3F)ccnc2cc1OCCCN1CCCCC1")
2.11
>>> meas_value("COc1cc2c(Oc3ccc(NC(=O)N/N=C/c4ccc(Cl)cc4)cc3F)ccnc2cc1OCCCN1CCCC1")
2.61
>>> meas_value("COc1cc2c(Oc3ccc(NC(=O)NNCc4ccc(F)cc4F)cc3F)ccnc2cc1OCCCN1CCC(C)CC1")
2.54
>>> meas_value("COc1cc2c(Oc3ccc(NC(=O)N/N=C/c4ccc(F)cc4)cc3F)ccnc2cc1OCCCN1CCC(C)CC1")
2.04
>>> meas_value("COc1cc2c(Oc3ccc(NC(=O)N/N=C/c4ccc(C(F)(F)F)cc4)cc3F)ccnc2cc1OCCCN1CCOCC1")
2.90
>>> meas_value("COc1cc2c(Oc3ccc(NC(=O)N/N=C(\\C)c4ccccc4)cc3F)ccnc2cc1OCCCN1CCCCC1")
2.20
>>> meas_value("COc1cc2c(Oc3ccc(NC(=O)N/N=C/c4ccc(F)cc4F)cc3F)ccnc2cc1OCCCN1CCCCC1")
1.89
>>> meas_value("COc1cc2c(Oc3ccc(NC(=O)N/N=C/c4ccc(Cl)cc4)cc3F)ccnc2cc1OCCCN1CCOCC1")
2.52
>>> meas_value("COc1cc2c(Oc3ccc(NC(=O)N/N=C/c4ccc(Cl)cc4)cc3F)ccnc2cc1OCCCN1CCCCC1")
2.34
>>> meas_value("COc1cc2c(Oc3ccc(NC(=O)N/N=C/c4ccc(OC(F)(F)F)cc4)cc3F)ccnc2cc1OCCCN1CCOCC1")
2.94
>>> meas_value("COc1cc2c(Oc3ccc(NC(=O)N/N=C/c4ccc(F)cc4)cc3F)ccnc2cc1OCCCN1CCCC1")
2.43
>>> meas_value("COc1cc2c(Oc3ccc(NC(=O)N/N=C/c4ccccc4F)cc3F)ccnc2cc1OCCCN1CCCCC1")
2.11
